measurement_target: PI3K beta (Homo sapiens, UniProt P42338)
Construct: for the full-length p110-b subunit are generated and fused by overlapping PCR; His tag (C); made in house; host or cells: baculovirus BV949; Tn5 (Trichoplusia ni) or TiniPro insect cells
Sequence (P42338 with tags, fused parts or gaps limits assumed): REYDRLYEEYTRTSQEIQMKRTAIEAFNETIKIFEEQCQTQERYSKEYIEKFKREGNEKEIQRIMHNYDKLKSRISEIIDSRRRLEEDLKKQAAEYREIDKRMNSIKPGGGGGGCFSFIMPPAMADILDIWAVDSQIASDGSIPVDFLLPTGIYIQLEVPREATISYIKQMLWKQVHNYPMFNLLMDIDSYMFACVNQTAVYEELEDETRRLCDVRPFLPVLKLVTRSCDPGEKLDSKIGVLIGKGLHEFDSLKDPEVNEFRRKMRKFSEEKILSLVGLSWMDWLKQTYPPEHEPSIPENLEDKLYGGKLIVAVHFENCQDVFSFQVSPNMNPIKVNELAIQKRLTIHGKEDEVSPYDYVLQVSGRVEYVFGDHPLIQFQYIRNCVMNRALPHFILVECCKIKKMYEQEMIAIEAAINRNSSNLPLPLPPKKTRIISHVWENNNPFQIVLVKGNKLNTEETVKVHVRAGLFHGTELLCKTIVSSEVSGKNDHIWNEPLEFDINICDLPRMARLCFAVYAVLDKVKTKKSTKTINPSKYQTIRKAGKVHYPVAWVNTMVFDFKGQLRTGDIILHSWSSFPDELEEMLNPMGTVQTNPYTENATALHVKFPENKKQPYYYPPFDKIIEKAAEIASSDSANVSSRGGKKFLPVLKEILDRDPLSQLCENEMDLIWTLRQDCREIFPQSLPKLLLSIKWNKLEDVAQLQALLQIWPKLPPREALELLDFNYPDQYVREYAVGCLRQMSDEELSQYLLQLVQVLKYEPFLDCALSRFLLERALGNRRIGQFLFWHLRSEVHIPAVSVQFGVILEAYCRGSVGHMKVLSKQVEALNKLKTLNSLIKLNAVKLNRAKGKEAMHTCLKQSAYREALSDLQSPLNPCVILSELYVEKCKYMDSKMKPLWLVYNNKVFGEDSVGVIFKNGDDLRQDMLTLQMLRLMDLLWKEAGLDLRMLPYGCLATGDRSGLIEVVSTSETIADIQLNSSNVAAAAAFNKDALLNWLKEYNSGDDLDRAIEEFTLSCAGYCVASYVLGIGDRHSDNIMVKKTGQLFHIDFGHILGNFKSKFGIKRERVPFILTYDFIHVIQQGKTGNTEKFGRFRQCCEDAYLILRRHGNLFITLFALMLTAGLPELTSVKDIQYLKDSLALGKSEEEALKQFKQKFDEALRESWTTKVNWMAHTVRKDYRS
assay_overview: PI3K beta kinase assay (Kinase-Glo luminescence)
Type: biochemical
protocol_conditions: read-out: EPK_PI3Kbeta/IC50
Method: In a more preferred assay, the kinase reaction is performed in a final volume of 10 μL per well of a low volume non binding CORNING, 384 well black plate (Cat. No. #3676). The final concentrations of ATP and phosphatidyl inositol (PI) in the assay are 1 μM and 10 μg/mL respectively. […] IC50 is determined by a four parameter curve fitting routine that comes along with “excel fit”. […] Alternatively, IC50 values are calculated using idbsXLfit model 204, which is a 4 parameter logistic model.
value_kind: pIC50
pIC50 here: minus log base 10 of the concentration, concentration in moles per litre.

CNc1ncc(-c2ccc3ncc4c(c3c2)n(-c2ccc(N(C)CCOC)nc2C)c(=O)n4C)cn1 [Example 15.2]	6.27
CCNc1cc(-c2ccc3ncc4c(c3c2)n(-c2ccc(OC)nc2C)c(=O)n4C)cnc1C [Example 11.7]	8.22
CCOc1cc(-c2ccc3ncc4c(c3c2)n(-c2ccc(OCCOC)nc2C)c(=O)n4C)cnc1COC [Example 22.1]	6.37
Cc1nc(C(C)(C)O)ccc1-n1c(=O)n(C)c2cnc3ccc(-c4cnc(N)c(C(F)(F)F)c4)cc3c21 [Example 31.5]	8.05
COc1ccc(-n2c(=O)n(C)c3cnc4ccc(-c5ccc6nccn6c5)cc4c32)c(OC)n1 [Example 8.10]	5.87

pIC50 measured on CCNc1ncc(-c2ccc3ncc4c(c3c2)n(-c2ccc(N3CC[C@@H](O)C3)nc2C)c(=O)n4C)cc1C(F)(F)F [Example 34.2] = 6.87

// CNc1ccc(-c2ccc3ncc4c(c3c2)n(-c2ccc(N(C)CCOC)nc2C)c(=O)n4C)cn1 [Example 15.4] : pIC50 value = 6.39

---

Quick reference: pIC50 of the listed items.
measurement_target: PI3K beta (Homo sapiens)
Construct: for the full-length p110-b subunit are generated and fused by overlapping PCR; His tag (C); made in house; host or cells: baculovirus BV949; Tn5 (Trichoplusia ni) or TiniPro insect cells
assay_overview: PI3K beta kinase assay (Kinase-Glo luminescence)
Assay type: biochemical
protocol_conditions: read-out: EPK_PI3Kbeta/IC50
Please keep in mind that pIC50 is minus log10 of the molar concentration; only the number is needed.

CCNc1cc(-c2ccc3ncc4c(c3c2)n(-c2ccc(N(C)CCOC)nc2C)c(=O)n4C)cnc1C	7.55
CCNc1ncc(-c2ccc3ncc4c(c3c2)n(-c2ccc(F)nc2C)c(=O)n4C)cn1	6.49
Cc1nc(N2CCC(O)C2)ccc1-n1c(=O)n(C)c2cnc3ccc(-c4cncc(C(C)(C)O)c4)cc3c21 (stereo not shown)	7.77

As a next step, examine the molecule that follows.
Note to self: pIC50 recorded for CCNc1ncc(-c2ccc3ncc4c(c3c2)n(-c2ccc(N3CC[C@@H](O)C3)nc2C)c(=O)n4C)cc1COCC was 6.34

---

# IC50 listing for each entry below
measurement_target: mTOR (Homo sapiens)
Construct: purchased Invitrogen Corporation (Carlsbad/Calif., USA) PV4753
Sequence (P42345 1360-2549 limits assumed): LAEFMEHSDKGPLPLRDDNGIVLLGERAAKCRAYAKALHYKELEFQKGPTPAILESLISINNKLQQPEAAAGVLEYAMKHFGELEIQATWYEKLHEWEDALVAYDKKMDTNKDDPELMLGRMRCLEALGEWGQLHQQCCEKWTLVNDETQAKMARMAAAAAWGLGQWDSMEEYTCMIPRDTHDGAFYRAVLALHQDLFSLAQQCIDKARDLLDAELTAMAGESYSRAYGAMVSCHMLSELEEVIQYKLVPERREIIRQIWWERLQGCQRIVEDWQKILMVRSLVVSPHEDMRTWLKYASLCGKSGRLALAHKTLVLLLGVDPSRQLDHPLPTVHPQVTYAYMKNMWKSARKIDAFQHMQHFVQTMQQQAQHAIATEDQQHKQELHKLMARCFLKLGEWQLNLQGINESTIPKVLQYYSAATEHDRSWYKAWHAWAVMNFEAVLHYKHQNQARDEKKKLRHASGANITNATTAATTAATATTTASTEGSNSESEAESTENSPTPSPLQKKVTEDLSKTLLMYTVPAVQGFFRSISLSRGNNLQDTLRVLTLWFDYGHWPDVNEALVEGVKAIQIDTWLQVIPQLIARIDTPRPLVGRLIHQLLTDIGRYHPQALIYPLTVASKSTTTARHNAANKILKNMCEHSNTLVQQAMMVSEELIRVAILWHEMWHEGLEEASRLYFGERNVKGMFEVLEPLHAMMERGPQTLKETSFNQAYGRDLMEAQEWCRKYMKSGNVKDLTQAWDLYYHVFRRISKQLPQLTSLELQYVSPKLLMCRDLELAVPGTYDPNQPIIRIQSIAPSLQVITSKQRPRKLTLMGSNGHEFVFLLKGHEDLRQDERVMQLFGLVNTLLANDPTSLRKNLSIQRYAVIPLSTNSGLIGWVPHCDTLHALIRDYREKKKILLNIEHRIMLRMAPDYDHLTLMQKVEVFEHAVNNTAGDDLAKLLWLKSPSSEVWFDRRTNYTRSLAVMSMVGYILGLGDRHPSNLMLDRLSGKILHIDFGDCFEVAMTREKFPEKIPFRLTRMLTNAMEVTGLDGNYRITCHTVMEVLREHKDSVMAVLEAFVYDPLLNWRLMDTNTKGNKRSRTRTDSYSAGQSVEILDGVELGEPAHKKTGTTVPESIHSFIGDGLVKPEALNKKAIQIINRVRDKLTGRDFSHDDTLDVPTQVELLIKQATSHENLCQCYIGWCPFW
assay_overview: Biochemical assay for m-TOR by TR-FRET
protocol_conditions: read-out: EPK_mTOR/IC50
Give your result in nM as a bare value.

What the record says about COCC(=O)Nc1ccc(-n2c(=O)n(C)c3cnc4ccc(-c5cncc(N)c5)cc4c32)c(C)n1 : IC50 is 7

compound CNc1ncc(-c2ccc3ncc4c(c3c2)n(-c2ccc(N3CC(O)C3)nc2C)c(=O)n4C)cc1C(F)(F)F , IC50 observed: 12

Entry COCCN(C)c1ccc(-n2c(=O)n(C)c3cnc4ccc(-c5cnc(CO)c(OC)c5)cc4c32)c(C)n1 , IC50 reported as 119

Looking up CCOCc1cc(-c2ccc3ncc4c(c3c2)n(-c2ccc(F)nc2C)c(=O)n4C)cnc1N , I found its IC50 recorded as 426

Briefly, IC50 measured for CCNc1cc(-c2ccc3ncc4c(c3c2)n(-c2ccc(N3CCCC3)nc2C)c(=O)n4C)cnc1CO : 22

Form field IC50, entry COc1ccc(-n2c(=O)n(C)c3cnc4ccc(-c5cnc(N(C)C)nc5)cc4c32)c(Cl)n1 : 215

Reported IC50 for CNc1ncc(-c2ccc3ncc4c(c3c2)n(-c2ccc(N3CC[C@H](O)C3)nc2C)c(=O)n4C)cc1Cl was 7

The origin of these recorded values is patent US20100311714A1.
